tested on: T-47D breast; experiment: NCI tumour cell line growth inhibition, 48 h
PARAMETER: TGI

>  <MOLECULE>
CC1(C)OC2C(CO)OC(n3ccc(=O)[nH]c3=O)C2O1 (centres undefined)

>  <TARGET DESC>
T-47D breast

>  <PARAMETER>
TGI

>  <VALUE OBSERVED>
> 100 µM

$$$$
>  <MOLECULE>
O=C(O)C(/C=C/c1ccco1)=N\Nc1nc(-c2ccc(Cl)cc2)cs1

>  <TARGET DESC>
T-47D breast

>  <PARAMETER>
TGI

>  <VALUE OBSERVED>
> 50 µM

$$$$
>  <MOLECULE>
CC1CCC2(OC1)OC1CC3C4CC=C5CC(OC6OC(CO)C(OC7OC(C)C(OC8OC(C)C(O)C(O)C8O)C(O)C7O)C(O)C6OC6OC(C)C(O)C(O)C6O)CCC5(C)C4CCC3(C)C1C2C (centres undefined)

>  <TARGET DESC>
T-47D breast

>  <PARAMETER>
TGI

>  <VALUE OBSERVED>
2.89 µM

$$$$
>  <MOLECULE>
N[C@@H]1C[C@H](N)c2c(Cl)sc(Cl)c21

>  <TARGET DESC>
T-47D breast

>  <PARAMETER>
TGI

>  <VALUE OBSERVED>
> 100 µM

$$$$

Origin of measurements: PubChem BioAssay (NCI)
